TEST_METHOD_NOTES: in vivo
RECORDED_CONDITIONS: Sprague-Dawley, rat, plasma; rats, SFN IV 2 mg/kg; read-out: AUCinf of SFN
OUTCOME_MEASURE: AUC(0-inf) (µg·h/mL)
The reply should be a number in µg·h/mL, with the unit left off.

Data request: Which AUC(0-inf) is listed for C[S+]([O-])CCCCN=C=S (stereo not shown) ?
Data returned: 0.421

---

TEST_METHOD_NOTES: in vivo
RECORDED_CONDITIONS: Sprague-Dawley, rat, plasma; rats, SFN oral 5 mg/kg; read-out: T1/2 of SFN (converted)
OUTCOME_MEASURE: half-life (h)
The reply should be a number in h, with the unit left off.

Data request: Which half-life is listed for C[S+]([O-])CCCCN=C=S (stereo not shown) ?
Data returned: 5

---

TEST_METHOD_NOTES: in vivo
RECORDED_CONDITIONS: Sprague-Dawley, rat, plasma; rats, SFN oral 5 mg/kg, vs SFN IV
OUTCOME_MEASURE: bioavailability (%)
The reply should be a number in %, with the unit left off.

Data request: Which bioavailability is listed for C[S+]([O-])CCCCN=C=S (stereo not shown) [SFN, Sulforaphane] ?
Data returned: 87

---

TEST_METHOD_NOTES: in vivo
RECORDED_CONDITIONS: Sprague-Dawley, rat, plasma; rats, SFN oral 5 mg/kg; read-out: AUCinf of SFN
Description: To evaluate absolute oral bioavailability, an intravenous (IV) bolus dose of SFN (2 mg/kg, dissolved in normal saline, 200 µL) was administered via a cannulated femoral vein. […] The plasma concentrations of SFN were determined using liquid chromatography–tandem mass spectrometry (LC–MS/MS) following protein precipitation and solid-phase extraction. […]
OUTCOME_MEASURE: AUC(0-inf) (ng·h/mL)
The reply should be a number in ng·h/mL, with the unit left off.

Data request: Which AUC(0-inf) is listed for C[S+]([O-])CCCCN=C=S (stereo not shown) ?
Data returned: 934

---

TEST_METHOD_NOTES: in vivo
RECORDED_CONDITIONS: Sprague-Dawley, rat, plasma; rats, SFN oral 5 mg/kg; read-out: AUClast of SFN
OUTCOME_MEASURE: AUC(0-t) (µg·h/mL)
The reply should be a number in µg·h/mL, with the unit left off.

Data request: Which AUC(0-t) is listed for C[S+]([O-])CCCCN=C=S (stereo not shown) ?
Data returned: 0.874
